Test: qHTS for Inhibitors of human tyrosyl-DNA phosphodiesterase 1 (TDP1): qHTS in cells in presence of CPT; note: nearly all actives have a fitted effect of over 55% in size; note: potency is the fitted concentration of half-maximal effect
Conditions: chicken DT40 Tdp1-/-;hTDP1 cells + 20 nM CPT, ATP luminescence, 48 h; series mostly up to 46.2 µM
Method: Human tyrosyl-DNA phosphodiesterase 1 (TDP1) is a novel repair gene, and we propose to use it as a new target for anticancer drug development. […] For the primary screen, Tdp1-/-;hTDP1 cells will be exposed to small molecules in the presence or absence of CPT, and their growth kinetics will be evaluated after 48 hours by measuring ATP activity. […] The hit compounds will then be evaluated in the presence or absence of CPT using Tdp1-/- cells. […]
The campaign covered roughly 420,000 compounds. About 50,000 (12%) were called active. Another 26% or so got no clear call; they are omitted. This excerpt belongs to a sample that is enriched for actives.
ENDPOINT NAME: Potency

compound=O=[N+]([O-])c1ccc(C=NN=Cc2ccc([N+](=O)[O-])cc2)cc1 endpoint_name=Potency endpoint_value=inactive
compound=CCOC(=O)Nc1ccc2c(c1)N(C(=O)CCN1CCN(CCO)CC1)c1ccccc1CC2 endpoint_name=Potency endpoint_value=inactive
compound=CCOC(=O)Nc1ccc(NC(=O)OCC)cc1 endpoint_name=Potency endpoint_value=inactive
compound=CCOC(=O)Nc1ccc2c(c1)N(C(=O)CCCl)c1ccccc1[S@]2=O endpoint_name=Potency endpoint_value="4.61 µM (active)"
compound=O=C(NN=Cc1ccc([N+](=O)[O-])cc1)C1CC1 endpoint_name=Potency endpoint_value=inactive
compound="COc1ccc2c(C)cc(SCC(=O)NCC3CCCO3)nc2c1 (stereo unspecified)" endpoint_name=Potency endpoint_value=inactive
